This collection of values is drawn from PubChem BioAssay (NCI).

# EXPERIMENT_DESCRIPTION: NCI Yeast Anticancer Drug Screen. Data for the bub3 strain (AID 167)
# COND: S. cerevisiae bub3 mutant strain, at 100.0 µM
The panel holds about 79,000 compounds, 15% with a hit somewhere; the sample as a whole holds those more often. The source made the active and inactive calls. Cut-off read from the data, not from the text of the source: active = growth inhibition above about 70%; inactive = the rest.
Outcome codes: true (1) for active, false (0) for inactive

{"columns": ["COMPOUND", "ASSIGNED_LABEL"],
 "data": [
  ["CC1=NN(C(=O)c2ccccc2O)C(=O)/C1=C/c1ccco1", "true (1)"],
  ["O=C(NC(N1CCN(c2cc3c(cc2F)c(=O)c(C(=O)O)cn3C2CC2)CC1)(C(F)(F)F)C(F)(F)F)c1ccccc1", "false (0)"],
  ["CC1=NN(C(=O)CC(=O)NC(=O)/C=C\\c2ccccc2)C(=O)C1N=Nc1ccc([N+](=O)[O-])cc1 (stereo unspecified)", "false (0)"],
  ["CN(C)N=Nc1ccc(N(C)C)cc1", "false (0)"],
  ["CN(C)/C(=N/C(=S)Nc1ccccc1)SCc1ccccc1", "false (0)"],
  ["CC(C)C(c1ccccc1)c1ccccc1", "false (0)"],
  ["CCCCCCCCN1COCC(COc2ccccc2C)OC1 (stereo unspecified)", "true (1)"],
  ["CCc1c(Cl)c(C)c(Cl)c(O)c1Cl", "true (1)"],
  ["Nc1ccc(S(=O)(=O)Nc2nc3c(c(=O)[nH]2)CCCC3)cc1", "true (1)"],
  ["OC(CC(O)(C(F)(F)F)C(F)(F)F)c1ccc(C(O)CC(O)(C(F)(F)F)C(F)(F)F)cc1 (stereo unspecified)", "true (1)"],
  ["Cc1c(Cl)c(C)c(Cl)c(O)c1Cl", "true (1)"]
]}

====

# EXPERIMENT_DESCRIPTION: NCI Yeast Anticancer Drug Screen. Data for the cln2 rad14 strain (AID 165);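 note: 0% = growth equal to vehicle treated cultures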
# COND: S. cerevisiae cln2 rad14 strain, at 50.0 µM, active compounds read high
# Description: Growth inhibition of yeast strains with defined genetic alterations is measured as a screen for potential anti-cancer activity. Selected strains with alterations in DNA damage repair or cell cycle control were exposed to compounds and growth inhibition was measured relative to vehicle treated controls. The strain used in this assay is cln2 rad14
About 79,000 compounds went through this panel and 15% of them were active in at least one assay; those are over-represented in the sample as a whole.
Listed below: growth inhibition values for each entry.

{"columns": ["COMPOUND", "growth inhibition, %"],
 "data": [
  ["O=C1C=CC(=Nc2cccc3c2-c2ccccc2C3=O)O1", 98.7],
  ["C=COC(=O)N[C@H]1CCc2cc(OC)c(OC)c(OC)c2-c2ccc(SC)c(=O)cc21", 20.4],
  ["CC(=O)NC(c1nc2cc(C)c(C)cc2[nH]1)c1nc2cc(C)c(C)cc2[nH]1", 42.8],
  ["CCOc1ccc2nc3ccccc3c(N)c2c1", 86.2],
  ["CCOC(=S)SSSC(=S)OCC", -2.7],
  ["CNCC(C)CNC", 66.2],
  ["CC(C)(N=Nc1ccc(Cl)cc1)[N+](=O)[O-]", 98.5],
  ["Nc1ccc2c(c1)C(=O)c1c(F)cccc1-2", 21.9],
  ["OB(O)c1ccccc1C#Cc1ccccc1", 55.8],
  ["NC(CCCCCCCCCCCCC(N)C(=O)c1ccccc1)C(=O)c1ccccc1 (configuration not stated)", -32.3],
  ["O=C1C=C(NCCc2cc(Br)c(O)c(Br)c2)C(=O)c2ncccc21", 46.2],
  ["Fc1cc(F)c(F)c(S)c1F", 79.5],
  ["OC(c1ccccc1)(c1ccccc1)c1nccc2ccccc12", 55.4],
  ["O=S(=O)(NC1CCCC(c2ccccc2)C1)c1ccccc1 (configuration not stated)", 50.8],
  ["c1cc(-c2sc(-c3ccncc3)c(-c3ccncc3)c2-c2ccncc2)ccn1", 45.6],
  ["CC(=O)/C(=C\\c1ccc(Cl)c(Cl)c1)C(=O)C(C)CN(C)C (configuration not stated)", 81.2],
  ["BrC1C2CCC3OC3C12 (configuration not stated)", 99],
  ["CCCCCCCCCCCCOCCOCCOCC(N)=O", 89.5],
  ["CCOC(=O)/C(=C/c1cccc(Cl)c1)N(CC)CC", 87.5],
  ["CC(C)(CN1CCCCC1)C(=O)/C=C/c1c(Cl)cccc1Cl", 86.4],
  ["CN(C)CCNCCCNc1c2ccccc2nc2cccc([N+](=O)[O-])c12", 97.5],
  ["S=C1C(=Nc2ccccc2)N(c2ccccc2)/C(=N\\c2ccccn2)N1c1ccccc1", 97.4],
  ["NC(N)=NS(=O)(=O)c1ccc(Nc2c3ccccc3nc3c(C(=O)NC(CO)(CO)CO)cccc23)cc1", -9.45],
  ["CC1=NN(C(=O)CC(=O)NC(=O)/C=C\\c2ccccc2)C(=O)C1N=Nc1ccc([N+](=O)[O-])cc1 (configuration not stated)", 51.2],
  ["COc1cc([N+](=O)[O-])c2ncccc2c1Br", 81.8],
  ["CC(=O)/C=C/c1cc([N+](=O)[O-])ccc1O", 46.5],
  ["Cc1c2c(nc3ccccc13)C(=O)c1cccnc1C2=O", 64],
  ["COc1cccc(C(NC2=NCCC=N2)c2cc3c(cc2O)OCO3)c1O (configuration not stated)", 44.6],
  ["O=C(Cc1ccccc1)NNc1nc(NNC(=O)c2ccncc2)nc(Nc2ccc(Cl)cc2)n1", 10.1],
  ["O=C1C(/C=C/c2ccc(Cl)cc2)=NNC2N1N=C1NC(=O)C3(NN12)c1ccccc1-c1ccccc13 (configuration not stated)", 62.9],
  ["COc1c2c(c3c(c1CCC(=O)O)OC(C)(C)C=C3)OC(C)(C)C=C2", 91.2],
  ["O=[N+]([O-])c1ccc(C(c2c[nH]c3ccccc23)c2c[nH]c3ccccc23)cc1", 88.1],
  ["O=S(=O)(c1ccccc1)N1CN2CN(C1)CN(S(=O)(=O)c1ccccc1)C2", -16.4],
  ["CC(=O)CCC1=C(C)C(=O)C(=O)C(C)=C1O", 14.1],
  ["Oc1ccc(C2(c3ccc(O)cc3)CCCC2)cc1", 89.5],
  ["O=C(CCSC1=NCCCN1)c1ccc(F)cc1", 25.6],
  ["COc1ccc(/C=C2\\SC(=S)N(/C=C3\\C(=O)N(c4ccccc4)N=C3C)C2=O)cc1OC", 50.8],
  ["CCCCCCNCCCNc1c2ccccc2nc2cccc([N+](=O)[O-])c12", 85.4],
  ["O=S(=O)(NNc1ccccc1)c1ccccc1", 16.1],
  ["COC(=O)C(=O)c1c(-c2ccc(Cl)c(Cl)c2)[nH]c2[nH]n(-c3ccccc3)c(=O)c2c1=O", 87.5],
  ["O=[N+]([O-])c1cc(Cl)ccc1S(=O)(=O)c1ccc(Cl)cc1[N+](=O)[O-]", 79.9],
  ["O=C1Nc2ccc(Br)cc2C1=Nc1ccc(Cl)cc1", 34],
  ["c1ccc2c(c1)N=C1CCCC3CCCC123 (configuration not stated)", 23.6],
  ["N#CC1OB(O)c2ccccc21 (configuration not stated)", 21],
  ["C[N+](C)([O-])CCCNc1c2ccccc2nc2cccc([N+](=O)[O-])c12", 87.2],
  ["CCOP(=O)(OCC)/C(C#N)=C\\c1cccc2ccccc12", 88.8],
  ["CC1(C)C(O)OC(O)C1(C)C (configuration not stated)", 24.4]
]}

====

# EXPERIMENT_DESCRIPTION: NCI Yeast Anticancer Drug Screen. Data for the mlh1 rad18 strain (AID 175)
# COND: S. cerevisiae mlh1 rad18 strain growth inhibition; at 50.0 µM; active compounds read high
The panel holds about 79,000 compounds, 15% with a hit somewhere; the sample as a whole holds those more often. Residues, ends and D or L forms follow the SMILES beside them. *: point of attachment. Fmoc = O=C(OCC1c2ccccc2-c2ccccc21)*; Boc = CC(C)(C)OC(=O)*
Rule: criterion met for growth inhibition not less than 70%, criterion not met for anything less.

{"columns": ["COMPOUND", "ASSIGNED_LABEL"],
 "data": [
  ["COC(=O)c1ccccc1N=NNc1cccc(SC)c1", "criterion met"],
  ["O=C1CC(C(O)(C(F)(F)F)C(F)(F)Cl)CCC1C(O)(C(F)(F)F)C(F)(F)Cl (stereo not given)", "criterion met"],
  ["CCC(=O)C1=C(O)c2cc(OC)ccc2CC1C(=O)OC (stereo not given)", "criterion not met"],
  ["CC1(C)OC(=O)C(=Cc2ccc([N+](=O)[O-])s2)C(=O)O1", "criterion met"],
  ["Cc1oc2ccccc2c(=O)c1Cn1nnc2ccccc21", "criterion not met"],
  ["CC(C)(C)OC(=O)NCCCCC(NC(=O)C(Cc1c[nH]c2ccccc12)NC(=O)OCC1c2ccccc2-c2ccccc21)C(=O)O (stereo not given) (Fmoc-Trp-Lys(Boc)-OH; configuration not given here)", "criterion not met"],
  ["O=[N+]([O-])c1ccc2nc(=S)[nH]n2c1", "criterion not met"],
  ["CC(=O)NC(c1nc2cc(C)c(C)cc2[nH]1)c1nc2cc(C)c(C)cc2[nH]1", "criterion not met"],
  ["CC(=O)/C=C/c1cccc([N+](=O)[O-])c1", "criterion met"],
  ["CCCCCCCC/C=C\\CCCCCCCCN", "criterion met"],
  ["OC(CC(O)(C(F)(F)F)C(F)(F)F)c1ccc(C(O)CC(O)(C(F)(F)F)C(F)(F)F)cc1 (stereo not given)", "criterion met"],
  ["OB(O)c1ccccc1C#Cc1ccccc1", "criterion met"],
  ["O=C(O)/C=C\\C(=O)Nc1ccc2c(c1)Cc1cc(Cl)ccc1-2", "criterion not met"],
  ["O=C(NNc1ccccc1)C(CCCCNS(=O)(=O)Cc1ccccc1)NS(=O)(=O)Cc1ccccc1 (stereo not given)", "criterion met"],
  ["Nc1ccc(/C=C/c2ccc3cccnc3c2)cc1", "criterion not met"],
  ["N#Cc1nc(Nc2ccc(Cl)cc2)sc1N", "criterion not met"],
  ["CCOP(=O)(OCC)/C(C#N)=C/c1cccc(Oc2ccccc2)c1", "criterion met"],
  ["O=[N+]([O-])c1ccc(S(=O)(=O)Cc2ccccc2)c([N+](=O)[O-])c1", "criterion met"],
  ["CCCCCCCCCCCNC=O", "criterion met"],
  ["CC1=NN(C(=O)c2ccccc2O)C(=O)/C1=C/c1ccco1", "criterion met"],
  ["Cc1ccccc1NC(=O)c1c(C)oc2c1C(=O)c1ccccc1C2=O", "criterion met"],
  ["O=P(C(=S)Nc1c(Cl)cccc1Cl)(c1ccccc1)c1ccccc1", "criterion met"],
  ["COc1ccc(N=c2cc(-c3ccccc3)oc3ccccc23)cc1", "criterion met"],
  ["CCC(C)(C)c1ccc(Oc2ccccc2)c(N)c1", "criterion met"],
  ["Cc1cc(O)c(C(C)C)cc1SC#N", "criterion met"],
  ["O=[N+]([O-])c1ccc2[nH]c3c(-c4ccccc4)nccc3c2c1", "criterion met"],
  ["CCN(CC)CCC(=O)Nc1ccc2sc3ccccc3c(=O)c2n1", "criterion not met"],
  ["CC(C)CCC[C@@H](C)[C@H]1CC[C@H]2[C@@H]3CC[C@H]4C[C@H](N)CC[C@]4(C)[C@H]3CC[C@]12C", "criterion not met"],
  ["CNC(=S)N/N=C(/C)CCC/C(C)=N/NC(=S)NC", "criterion not met"],
  ["CCN(CC)C(=S)SC(=S)N(CC)CC", "criterion met"],
  ["CCCNCC(=O)O[C@]1(CC)C(=O)OCc2c1cc1n(c2=O)Cc2cc3ccccc3nc2-1", "criterion met"],
  ["N#[N+]c1c([O-])c2ccccc2c2ccccc12", "criterion met"],
  ["NCCCSc1ccccc1", "criterion not met"],
  ["O=NC1c2cccc3cccc(c23)C1N=O (stereo not given)", "criterion met"],
  ["Cc1nc2sc3c(c2c(=O)o1)CCCC3", "criterion not met"],
  ["O=C(CCCN1CCC(Nc2ccc(F)cc2)(c2nnnn2C2CCCCC2)CC1)c1ccc(F)cc1", "criterion met"],
  ["CC(CC/C(=N/O)c1ccccc1)(CC/C(=N\\O)c1ccccc1)[N+](=O)[O-] (stereo not given)", "criterion met"],
  ["CC1(c2ccccc2)O[C@@H]2C[C@H]3[C@@H]4CCC5=CC(=O)C=C[C@]5(C)[C@@]4(F)[C@@H](O)C[C@]3(C)[C@]2(C(=O)CO)O1 (stereo not given in full)", "criterion met"],
  ["N#CSCC1COc2ccccc2O1 (stereo not given)", "criterion met"],
  ["O=C(NC(N1CCN(c2cc3c(cc2F)c(=O)c(C(=O)O)cn3C2CC2)CC1)(C(F)(F)F)C(F)(F)F)c1ccccc1", "criterion not met"],
  ["CC/C(=C(\\c1ccccc1)c1ccc(OCC[N+](C)(C)C)cc1)c1ccccc1", "criterion met"],
  ["Cc1ccc(Nc2n[nH]c(=S)s2)c(C)c1", "criterion not met"],
  ["Fc1cc(F)c(F)c(S)c1F", "criterion met"],
  ["CCN(CC)C(=S)N/N=C(\\C)c1ccccc1O", "criterion met"]
]}
